experimentalSystem: mGAT2 (Mus musculus)
Sequence (P31651 whole entry): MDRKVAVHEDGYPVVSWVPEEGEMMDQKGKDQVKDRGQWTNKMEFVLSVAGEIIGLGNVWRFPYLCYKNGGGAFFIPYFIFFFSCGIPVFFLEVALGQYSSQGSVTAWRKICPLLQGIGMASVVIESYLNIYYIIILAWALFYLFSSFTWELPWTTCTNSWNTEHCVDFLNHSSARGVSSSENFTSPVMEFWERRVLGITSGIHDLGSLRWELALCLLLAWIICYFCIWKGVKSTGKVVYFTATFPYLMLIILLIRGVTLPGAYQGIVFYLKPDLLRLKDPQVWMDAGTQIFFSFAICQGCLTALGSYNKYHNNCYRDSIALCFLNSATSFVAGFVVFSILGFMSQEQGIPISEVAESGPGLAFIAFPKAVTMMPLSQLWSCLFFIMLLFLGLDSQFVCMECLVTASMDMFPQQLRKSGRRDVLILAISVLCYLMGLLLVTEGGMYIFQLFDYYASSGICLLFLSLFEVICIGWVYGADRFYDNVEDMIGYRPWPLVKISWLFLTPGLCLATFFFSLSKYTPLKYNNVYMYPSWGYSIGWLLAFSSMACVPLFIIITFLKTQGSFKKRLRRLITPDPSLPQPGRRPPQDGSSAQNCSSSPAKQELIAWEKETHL
assay: [3H]GABA uptake assay, mGAT2
Assay type: cell-based
conditions: GABA uptake assay; read-out: mGAT2 IC50
Measured IC50, listed per entry.
propertyLabel: IC50 (µM)

>>> print(df.to_string())
                                   molecule    experimentalsystem  propertylabel  readoutnumber
0  CC(C)(C)c1cccc(CNC[C@@H](O)[C@H](Cc2ccccc2)NC2c3ccccc3-c3ccccc32)c1 [Compound 4]  mGAT2 (Mus musculus)           IC50           26.3
1  O[C@@H](CNCC1CCCCC1)[C@H](Cc1ccccc1)NC1c2ccccc2-c2ccccc21 [Compound 5]  mGAT2 (Mus musculus)           IC50           10.7
2  O[C@H](CNCc1ccccc1)[C@H](Cc1ccccc1)NC1c2ccccc2-c2ccccc21 [Compound 1]  mGAT2 (Mus musculus)           IC50           9.77
3  COc1ccccc1CNC[C@H](O)[C@H](Cc1ccccc1)NC1c2ccccc2-c2ccccc21 [Compound 2]  mGAT2 (Mus musculus)           IC50           13.2
4  COc1cccc(CNC[C@H](O)[C@H](Cc2ccccc2)NC2c3ccccc3-c3ccccc32)c1 [Compound 3]  mGAT2 (Mus musculus)           IC50             12

* * *

assay: Pharmacokinetic study after i.p. administration
Format: in vivo
conditions: ICR-CD1, mouse, plasma, ip, 10 mg/kg, mice, 10 mg/kg i.p.
propertyLabel: Cmax (ng/mL)

In [3]: df
Out[3]:
                             moleculesmiles  unitsofmeasure  readoutnumber
0  O[C@H](CNCC1CC1)[C@H](Cc1ccccc1)NC1c2ccccc2-c2ccccc21           ng/mL            430

* * *

experimentalSystem: mGAT3 (Mus musculus, UniProt P31649)
Sequence (P31649 whole entry): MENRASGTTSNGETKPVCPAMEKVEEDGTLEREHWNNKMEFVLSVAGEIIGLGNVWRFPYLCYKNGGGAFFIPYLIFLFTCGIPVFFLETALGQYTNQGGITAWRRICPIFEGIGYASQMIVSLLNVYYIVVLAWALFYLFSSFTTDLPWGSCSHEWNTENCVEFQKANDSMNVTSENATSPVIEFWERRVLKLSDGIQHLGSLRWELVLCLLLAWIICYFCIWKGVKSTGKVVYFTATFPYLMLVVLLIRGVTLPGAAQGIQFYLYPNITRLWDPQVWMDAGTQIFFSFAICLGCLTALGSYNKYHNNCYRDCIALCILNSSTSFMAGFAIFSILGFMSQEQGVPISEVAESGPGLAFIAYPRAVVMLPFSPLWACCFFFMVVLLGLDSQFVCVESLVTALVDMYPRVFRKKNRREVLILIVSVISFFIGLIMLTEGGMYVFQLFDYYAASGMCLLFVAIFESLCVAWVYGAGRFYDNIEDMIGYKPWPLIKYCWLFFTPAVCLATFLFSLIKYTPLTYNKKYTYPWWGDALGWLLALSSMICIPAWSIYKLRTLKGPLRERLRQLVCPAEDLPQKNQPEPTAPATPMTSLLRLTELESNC
assay: [3H]GABA uptake assay, mGAT3
Format: cell-based
pIC50: −log10 of the molar value.
propertyLabel: pIC50

>>> df
                                   compound  readoutnumber
0  O[C@H](CNCC1CC1)[C@H](Cc1ccccc1)NC1c2ccccc2-c2ccccc21 [Compound 6]           5.13

* * *

experimentalSystem: UniProt:P31648
assay: MS Binding Assay with NO 711 as marker
propertyLabel: Ki (µM)

                             moleculesmiles  readoutnumber
0  O[C@H](CNCC1CC1)[C@H](Cc1ccccc1)NC1c2ccccc2-c2ccccc21           37.2

* * *

assay: Pharmacokinetic study after i.g. administration
Type: in vivo
conditions: ICR-CD1, mouse, plasma, po, 10 mg/kg, mice, 10 mg/kg i.g.; read-out: plasma Tmax (converted)
propertyLabel: Tmax (h)

In [3]: df
Out[3]:
                             moleculesmiles  propertylabel  readoutnumber
0  O[C@H](CNCC1CC1)[C@H](Cc1ccccc1)NC1c2ccccc2-c2ccccc21           Tmax           1.33

* * *

assay: Pharmacokinetic study after i.g. administration
Type: in vivo
conditions: ICR-CD1, mouse, plasma, po, 10 mg/kg, mice, 10 mg/kg i.g., plasma; read-out: Half-life
propertyLabel: half-life (h)

>>> print(df.to_string())
                                   molecule  propertylabel  readoutnumber
0  O[C@H](CNCC1CC1)[C@H](Cc1ccccc1)NC1c2ccccc2-c2ccccc21 [Compound 6]      half-life           3.54

// data source = paper PMC11796312
